ASSAY TEXT: chemical genetic growth profiling, strain panel (AID 1159580);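 note: tested at 20 µM; growth read once vehicle control cultures reached saturation at 30 °C; lower values mean less growth of the strain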
EXPERIMENTAL CONTEXT: S. cerevisiae deletion strains, growth OD, locus YGR229C, strain SMI1
Screen size: about 5,500 compounds; about 2,000 (36%) were called active. Another 18% or so got no clear call; they are omitted. Cut-off read from the data, not from the text of the source: active = normalized growth mostly below about 0.91 (no sharp cut-off); inconclusive = no clear call, values can overlap the other calls; inactive = mostly above about 0.92. The list shows a part of the results.
Possible outcomes: active, inactive

1. O=C(O)CP(=O)(O)O: inactive
2. COC(=O)c1ccc(C#Cc2ccccc2)o1: inactive
3. CCCSP(=O)(OCC)SCCC: inactive
4. CC(C)CC(NP(=O)(O)O[C@@H]1O[C@@H](C)[C@H](O)[C@@H](O)[C@H]1O)C(=O)NC(Cc1c[nH]c2ccccc12)C(=O)O (stereo not given in full): inactive
5. COc1c(C(=O)O)ccc2c1CCC(C)(C)O2: active
6. CC[C@@H]1[C@@H](O)N2C3C[C@H]1C1C(O)[C@]4(C[C@@H]12)c1ccccc1N(C)[C@@H]34 (stereo not given in full): inactive
7. CO[C@@H]1[C@@H](O[C@@H]2O[C@H](C)[C@@H](O[C@H]3C[C@@](C)(O)[C@H](O)[C@H](C)O3)[C@H](N(C)C)[C@H]2O)[C@@H](CC=O)C[C@@H](C)[C@@H](O[C@H]2CC[C@H](N(C)C)[C@@H](C)O2)/C=C/C=C/C[C@H](C)OC(=O)C[C@H]1O: inactive
8. CCOC(=O)C1=CC2(CC)CCCN3CCc4c(n1c1ccccc41)C32 (stereo not given): inactive
9. O=S(=O)(c1cc(Br)c(Br)s1)N1CCCCC1: inactive
10. CC12CCC(CC1)C(C)(C)O2: inactive
